Test: soluble on expression in E. coli; label from the status in PepcDB or PDB records
Property Name: soluble on expression in E. coli

MSGIPSQGVASGMREAARALLAVLEPEQVRELRAGPDRLDTPELREWTYLPGPRPGLSTEGLDGRQREVVDALLTTAHSAAGAELVRGAIEVERHPRARAGHPGPDRYWVRLLGDPGGDEPWGWRLNGHHLAVHVLVTAAGVRVTPHFVGAEPARTGNGPRPGLRPLGPEEDLARELITSLGGTARASALFAATPPDDILTRADPFADPGLLPEGLRYDRLAPGQQRLLERLVGRYLDRAPEAYARECWSDAVRRGLGSLSFAWAGGLAPGDRHYYCVRAPDFLIEYDNTQDDGNHAHSVWRHVRHDWGTDLLRGHYTEQHFLEHHHHHH: not soluble
MAAISLAKVEETAPALVSLYKSAGVSLHKHGLDGQRAAVYLVVDYSGSMRPYYKDGSVQALTDRVLGLSAHLDDDGTVPVVFFSTDIDAVTDIALADHQGHIELIVAGLGHMGKTSYHLAMDAVIDHYLDSGSKDPAFVVFQTDGGPTSKPAAERYLCKAAELPLFWQFIGFGDPGSRQFEFLRKLDELAVPHKRVVDNAGFFHAGTDPRKVSDGELYDRLVGEFPQWLAAARTHGIVRLEHHHHHH: not soluble
MGSDKIHHHHHHLSTSQPAEPGDEIARLGALAADFRRRLELDPGAIYPAHAECLWRLGNLQIAQGDVEAGLLSISDSVGLYRAIAQAQPDSYAVQLASLLNSQSNMLAEASHLEEARAIASDAVEHARSAMDDYGDQARFVLVSALINLAGLKMRSGDTAGTVDELAQAVEVFRDGGTAGQPFLGSMVEALHRAAMAFTEVGLWNEAIDTRRLLIGLFGQAPPSAVVQLLMLTLQQASVGLAGTGDTAKALVHANEAVDLARMLFAADGQANRLALAQAVGNLAGRHHDAGSLKEALDLSLEAVDLFQDAVSMDPIHAVPSLIVTLDCMASILTALGLPDQAATVREQRSQLQETLEIIAPRAN: not soluble
